# Experiment Summary: Phase I study CXR1002-001: plasma pharmacokinetics (LC-MS/MS)
# Format: in vivo, human
# Condition: human, plasma, po, 1000 mg, Patient 041, 1000 mg weekly oral dose, Time 508 hr; read-out: Concentration (plasma level)
Measured Endpoint: concentration at 508 hr (µM)
Kindly answer with a numeric value in µM, unit omitted.

Incoming: Dear colleague, I am looking for the recorded concentration at 508 hr of the following compound: O=C(O)C(F)(F)C(F)(F)C(F)(F)C(F)(F)C(F)(F)C(F)(F)C(F)(F)F
Outgoing: 676

* * *

# Experiment Summary: Phase I study CXR1002-001: plasma pharmacokinetics (LC-MS/MS)
# Type: in vivo, human
# Condition: human, plasma, oral, 950 mg, Patient 032, 950 mg, person, plasma, 168 hr (Day 8); read-out: Concentration
Measured Endpoint: concentration at 168 h (µM)
Kindly answer with a numeric value in µM, unit omitted.

Incoming: Dear colleague, I am looking for the recorded concentration at 168 h of the following compound: O=C(O)C(F)(F)C(F)(F)C(F)(F)C(F)(F)C(F)(F)C(F)(F)C(F)(F)F
Outgoing: 192

* * *

# Experiment Summary: Phase I study CXR1002-001: plasma pharmacokinetics (LC-MS/MS)
# Format: in vivo, human
# Condition: human, plasma, oral, 100 mg, Patient 005 Dose 100 mg; 864 hr (Day 37); read-out: Concentration
Measured Endpoint: concentration at 864 h (µM)
Kindly answer with a numeric value in µM, unit omitted.

Incoming: Dear colleague, I am looking for the recorded concentration at 864 h of the following compound: O=C(O)C(F)(F)C(F)(F)C(F)(F)C(F)(F)C(F)(F)C(F)(F)C(F)(F)F [CXR1002]
Outgoing: 109

* * *

# Experiment Summary: Phase I study CXR1002-001: plasma pharmacokinetics (LC-MS/MS)
# Assay type: in vivo, human
# Condition: human, plasma, po, 1200 mg, Patient 038, 1200 mg weekly oral dose, Time 508 hr; read-out: Concentration (plasma level)
Measured Endpoint: concentration at 508 h (µM)
Kindly answer with a numeric value in µM, unit omitted.

Incoming: Dear colleague, I am looking for the recorded concentration at 508 h of the following molecule: O=C(O)C(F)(F)C(F)(F)C(F)(F)C(F)(F)C(F)(F)C(F)(F)C(F)(F)F
Outgoing: 699

* * *

# Experiment Summary: Phase I study CXR1002-001: plasma pharmacokinetics (LC-MS/MS)
# Assay type: in vivo, human
# Condition: human, plasma, oral, 200 mg, Patient 010 Dose 200 mg; 170 hr; read-out: Concentration
# From the text: PK samples, PD (fasting) samples, blood glucose, and blood triglyceride samples, were taken over a 6-week period. Dose limiting toxicity (DLT) will be based on the toxicity assessments over the first 3-week period of the repeat dosing schedule. […]
Measured Endpoint: concentration at 170 h (µM)
Kindly answer with a numeric value in µM, unit omitted.

Incoming: Dear colleague, I am looking for the recorded concentration at 170 h of the following molecule: O=C(O)C(F)(F)C(F)(F)C(F)(F)C(F)(F)C(F)(F)C(F)(F)C(F)(F)F
Outgoing: 81.7

* * *

# Experiment Summary: Phase I study CXR1002-001: plasma pharmacokinetics (LC-MS/MS)
# Type: in vivo, human
# Condition: human, plasma, oral, 300 mg, Patient 014 Dose 300 mg; 24 hr (Day 2); read-out: Concentration
Measured Endpoint: concentration at 24 h (µM)
Kindly answer with a numeric value in µM, unit omitted.

Incoming: Dear colleague, I am looking for the recorded concentration at 24 h of the following compound: O=C(O)C(F)(F)C(F)(F)C(F)(F)C(F)(F)C(F)(F)C(F)(F)C(F)(F)F
Outgoing: 102

* * *

# Experiment Summary: Phase I study CXR1002-001: plasma pharmacokinetics (LC-MS/MS)
# Format: in vivo, human
# Condition: human, plasma, oral, 750 mg, Patient 027, 750 mg, person, plasma, 2 hr; read-out: Concentration
Measured Endpoint: concentration at 2 h (µM)
Kindly answer with a numeric value in µM, unit omitted.

Incoming: Dear colleague, I am looking for the recorded concentration at 2 h of the following molecule: O=C(O)C(F)(F)C(F)(F)C(F)(F)C(F)(F)C(F)(F)C(F)(F)C(F)(F)F
Outgoing: 110

* * *

# Experiment Summary: Phase I study CXR1002-001: plasma pharmacokinetics (LC-MS/MS)
# Type: in vivo, human
# Condition: female, human, plasma, oral, Female, plasma, 844 hr; read-out: Concentration
Measured Endpoint: concentration at 844 h (µM)
Kindly answer with a numeric value in µM, unit omitted.

Incoming: Dear colleague, I am looking for the recorded concentration at 844 h of the following compound: O=C(O)C(F)(F)C(F)(F)C(F)(F)C(F)(F)C(F)(F)C(F)(F)C(F)(F)F
Outgoing: 482

* * *

# Experiment Summary: Phase I study CXR1002-001: plasma pharmacokinetics (LC-MS/MS)
# Format: in vivo, human
# Condition: human, plasma, oral, 1200 mg, Patient 033, 1200 mg, person, plasma, 171 hr; read-out: Concentration
Measured Endpoint: concentration at 171 h
The answer consists of two parts: a number and, after it, its unit.

Incoming: Dear colleague, I am looking for the recorded concentration at 171 h of the following compound: O=C(O)C(F)(F)C(F)(F)C(F)(F)C(F)(F)C(F)(F)C(F)(F)C(F)(F)F [CXR1002]
Outgoing: 657 µM

* * *

# Experiment Summary: Phase I study CXR1002-001: plasma pharmacokinetics (LC-MS/MS)
# Format: in vivo, human
# Condition: human, plasma, po, 1200 mg, Patient 038, 1200 mg weekly oral dose, Time 2 hr; read-out: Concentration (plasma level)
Measured Endpoint: concentration at 2 h (µM)
Kindly answer with a numeric value in µM, unit omitted.

Incoming: Dear colleague, I am looking for the recorded concentration at 2 h of the following compound: O=C(O)C(F)(F)C(F)(F)C(F)(F)C(F)(F)C(F)(F)C(F)(F)C(F)(F)F
Outgoing: 313

* * *

# Experiment Summary: Phase I study CXR1002-001: plasma pharmacokinetics (LC-MS/MS)
# Assay type: in vivo, human
# Condition: human, plasma, oral, 600 mg, Patient 021, 600 mg, person, plasma, 3 hr; read-out: Concentration
Measured Endpoint: concentration at 3 h (µM)
Kindly answer with a numeric value in µM, unit omitted.

Incoming: Dear colleague, I am looking for the recorded concentration at 3 h of the following compound: O=C(O)C(F)(F)C(F)(F)C(F)(F)C(F)(F)C(F)(F)C(F)(F)C(F)(F)F [CXR1002]
Outgoing: 121

* * *

# Experiment Summary: Phase I study CXR1002-001: plasma pharmacokinetics (LC-MS/MS)
# Assay type: in vivo, human
# Condition: human, plasma, oral, 600 mg, Patient 023, 600 mg, person, plasma, 24 hr (Day 2); read-out: Concentration
Measured Endpoint: concentration at 24 h (µM)
Kindly answer with a numeric value in µM, unit omitted.

Incoming: Dear colleague, I am looking for the recorded concentration at 24 h of the following compound: O=C(O)C(F)(F)C(F)(F)C(F)(F)C(F)(F)C(F)(F)C(F)(F)C(F)(F)F
Outgoing: 221

* * *

# Experiment Summary: Phase I study CXR1002-001: plasma pharmacokinetics (LC-MS/MS)
# Format: in vivo, human
# Condition: human, plasma, po, 1000 mg, Patient 041, 1000 mg weekly oral dose, Time 168 hr (Day 8); read-out: Concentration (plasma level)
Measured Endpoint: concentration at 168 hr (µM)
Kindly answer with a numeric value in µM, unit omitted.

Incoming: Dear colleague, I am looking for the recorded concentration at 168 hr of the following compound: O=C(O)C(F)(F)C(F)(F)C(F)(F)C(F)(F)C(F)(F)C(F)(F)C(F)(F)F
Outgoing: 171

* * *

# Experiment Summary: Phase I study CXR1002-001: plasma pharmacokinetics (LC-MS/MS)
# Type: in vivo, human
# Condition: human, plasma, oral, 300 mg, Patient 014 Dose 300 mg; 192 hr (Day 9); read-out: Concentration
Measured Endpoint: concentration at 192 h (µM)
Kindly answer with a numeric value in µM, unit omitted.

Incoming: Dear colleague, I am looking for the recorded concentration at 192 h of the following compound: O=C(O)C(F)(F)C(F)(F)C(F)(F)C(F)(F)C(F)(F)C(F)(F)C(F)(F)F
Outgoing: 178

* * *

# Experiment Summary: Phase I study CXR1002-001: plasma pharmacokinetics (LC-MS/MS)
# Assay type: in vivo, human
# Condition: human, plasma, oral, 600 mg, Patient 020, 600 mg, person, plasma, 360 hr (Day 16); read-out: Concentration
Measured Endpoint: concentration at 360 h

Incoming: Dear colleague, I am looking for the recorded concentration at 360 h of the following molecule: O=C(O)C(F)(F)C(F)(F)C(F)(F)C(F)(F)C(F)(F)C(F)(F)C(F)(F)F [CXR1002]
Outgoing: 410 µM
